- System: human promyelocytic leukemia HL-60 cells
- EXPERIMENT_DESCRIPTION: WST-1 cell proliferation assay, HL-60 cells
- Assay type: cell-based
- COND: Homo sapiens, HL-60; WST-1, 72 h, concentrations 50-200 µM, mean ± SD; na = not active in range tested
ASSAY_READOUT: IC50
Respond with the figure and its unit, in that order.

Consider the worked cases shown below.
| COMPOUND | IC50 |
| --- | --- |
| CCCCCCCCCCCCCCCC(=O)OC[C@H](COP(=O)([O-])OCC[N+](C)(C)C)OC(=O)C(C)c1ccc(CC(C)C)cc1 (mixture of isomers) [Compound 12] | 77.4 µM |
| COc1ccc2cc([C@H](C)C(=O)O)ccc2c1 [Compound 2, naproxen, reference compound] | 141 µM |
| COc1ccc2cc(C(C)C(=O)OC[C@H](COP(=O)([O-])OCC[N+](C)(C)C)OC(=O)C(C)c3ccc4cc(OC)ccc4c3)ccc2c1 (mixture of isomers) [Compound 16] | 80.1 µM |

[ask] What does the record list as IC50 for CC(C)Cc1ccc(C(C)C(=O)OC[C@H](COP(=O)([O-])OCC[N+](C)(C)C)OC(=O)C(C)c2ccc(CC(C)C)cc2)cc1 (mixture of isomers) [Compound 15] ?
[reply] 64.5 µM

[ask] What does the record list as IC50 for CC(C)Cc1ccc(C(C)C(=O)O)cc1 (centres unmarked) [Compound 1, ibuprofen, reference compound] ?
[reply] 106 µM
